Where do these numbers come from? They come from ChEMBL document CHEMBL3988442.

# Test system: Trypanosoma brucei
# assay-notes: Trypanosoma brucei 72 hour study
# Assay type: functional, organism-based
# Set-up: scale not given: in the data most compounds retested in dose-response had high values
# measurement-context: 30 µM; 30.03 µM
About 960 (1.5%) of roughly 66,000 compounds showed an effect of 50% or more. This is one part of a sample in which strong results are shown more often than they occur.
Respond with Yes for Percent Effect values of -20% and above, No for values below.

Look over these answered cases.
COc1cccc(CNC2CCCOc3cc(C)ccc32)n1 (stereo not drawn)    Yes
Cc1ccc(S(=O)(=O)NCC(C)(C)N)c(F)c1.Cl    Yes
CC(C)(C)C(O)CN1CCN(CC(=O)NCC(F)(F)F)CC1 (stereo not drawn)    No
CCn1ccnc1CN1CCCC(CO)(Cc2cccc(OC)c2)C1 (stereo not drawn)    No
CCC1(CO)CCCN(Cc2nccn2Cc2ccccc2)C1 (stereo not drawn)    Yes

Problem: Exam item: decide whether the reported Percent Effect for COCCNC(=O)[C@H]1CN(Cc2csc(C)n2)C[C@H]2OCC[C@@H]12.O=C(O)C(F)(F)F.O=C(O)C(F)(F)F is at least -20%.
Result: Yes

Problem: Evaluate Fc1ccc(N2CCCN(c3ccc(Cn4ccnc4)cn3)CC2)cc1 : Percent Effect at minimum -20%?
Result: Yes

Problem: Can CC(C)c1noc(CN(C)C(c2ccc(F)cc2)c2cccnc2)n1 (stereo not drawn) be said to have Percent Effect at or above -20%?
Result: Yes

Problem: Quick check: does CC(C)C1CN(S(C)(=O)=O)CCCN1Cc1ccc(F)cc1 (stereo not drawn) have Percent Effect greater than or equal to -20%?
Result: No

Problem: Dear colleague, could you confirm whether CCn1ccnc1CN1CCCC(CO)(Cc2cccc(Cl)c2)C1 (stereo not drawn) has Percent Effect at or above -20%?
Result: Yes

Problem: Does the molecule COc1ccccc1Oc1ncccc1CNC(=O)C1COC(=O)N1 (stereo not drawn) have recorded Percent Effect that is -20% or more?
Result: No

Problem: Does CCS(=O)(=O)N1CCCC2(COCCN(c3ccccn3)C2)C1.O=C(O)C(F)(F)F (stereo not drawn) have a reported Percent Effect of at least -20%?
Result: No

Problem: Say whether Cc1cccc(C)c1Oc1ncccc1CNC(=O)C1COC(=O)N1 (stereo not drawn) shows Percent Effect of -20% or more.
Result: Yes

Problem: Has COc1ccc2c(ccn2CCCN)c1.O=C(O)C(=O)O a recorded Percent Effect greater than or equal to -20%?
Result: Yes

Problem: Confirm if Percent Effect reported for the molecule Cn1cc(N2CC3(CCN(CC4CC4)CC3)OCC2=O)cn1.O=C(O)C(F)(F)F is -20% or above.
Result: Yes

Problem: Hi team, for Cc1nnsc1C(=O)NCc1nn(C)c2c1CCCC2 , is the recorded Percent Effect at or above -20%?
Result: Yes

Problem: Please check the record CCOc1cc(CNC(=O)c2cnn(CC)c2C(F)(F)F)ccn1 and state if its Percent Effect is at or above -20%.
Result: Yes

---

Item-by-item account of Percent Effect
# Tested on: Trypanosoma brucei
# assay-notes: Trypanosoma brucei 72 hour study
# Assay type: functional, organism-based
# Design: scale not given: in the data most compounds retested in dose-response had high values
# measurement-context: 30 µM; 30.03 µM
Screen size: about 66,000 compounds; about 960 (1.5%) showed an effect of 50% or more. Shown is part of a subset that was picked to be rich in strong results.
Quick reminder: number only, in %, skip the unit.

Worked cases, Percent Effect given:
CC(C)NC(=O)Cn1ccc2c(Cl)cccc21    -29.64
O=C(O)C(F)(F)F.O=C(c1cnccn1)N1CCCC2(CCN(c3ncccn3)C2)C1 (configuration not stated)    -0.826
CCN(CC)C(=O)CCCNC(=O)c1csc(NC2CC2)n1    -27.48
COc1cccc(C(=O)N2C[C@H]3CC[C@@H]2CN(Cc2cscn2)C3)c1    -1.998
O=C(c1nc(-c2ccc3cc[nH]c3c2)no1)N1CCCC1    53.89

Problem: For the compound Cc1ccc(C)c(CSc2nnc(C(N)C(C)C)o2)c1.Cl (configuration not stated) , what Percent Effect is on record?
Result: -51.12

Problem: Data request, read-out Percent Effect, for CN1CC[C@H]2OCC[C@@H](C(=O)NCc3ccco3)[C@@H]2C1.O=C(O)C(F)(F)F
Result: -30.69

Problem: Form field: reported Percent Effect of COCCCN1CC2(CCN(C(=O)c3ncc(F)cc3F)CC2)CC1=O
Result: -16.91

Problem: Quick one: Percent Effect of CC(C)(C)[S+]([O-])CCNC(=O)c1csc(NC2CC2)n1 (configuration not stated) ?
Result: -59.41
